# Test system: CCRF-CEM
# Measurement notes: NCI tumour cell line growth inhibition, 48 h
Active and inactive are the calls of the source. Rule as the data show it: active = GI50 up to about 1.1 µM and inactive = higher.
Give measured GI50 for each item. Keep answers brief.

IN: Please look up its GI50: `COc1cc(C)cc(C(=O)OCc2ccccc2)c1C1=C(Cl)C(=O)C(Cl)=CC1=O`
OUT: 2.08 µM (inactive)

IN: Try `Cn1c(CO)ccc1-c1ccc(-c2ccc(CO)[se]2)[se]1` next.
OUT: 1.8 µM (inactive)

IN: Would you kindly repeat that for CCC1(O)C(=O)OCc2c1cc1n(c2=O)Cc2cc3ccc(CO)cc3nc2-1 (configuration not stated) ?
OUT: 0.186 µM (active)

IN: Now consider `c1cc2c(s1)-c1sccc1C21OCCO1` .
OUT: > 100 µM (inactive)

IN: Then this molecule: `Cc1nc2[nH]ncn2c(=O)c1CCCl`
OUT: > 10 µM (inactive)

IN: Same question for `C/C(=N/NC(=S)N1CCCC1)c1cccc(/C(C)=N\NC(=S)N2CCCC2)n1` please.
OUT: 0.0667 µM (active)

IN: One more molecule: CCOP(=O)(OCC)OC1c2[nH]ccc2-c2cc(C(=O)OC)[nH]c2C1OC (configuration not stated)
OUT: > 100 µM (inactive)

IN: Same read-out for `CCSC1=N/C(=C/c2ccccc2O)C(=O)N1` ?
OUT: > 100 µM (inactive)

IN: Okay, and OCc1cc2c([nH]c3ccccc32)c(C(O)CO)n1 (configuration not stated) ?
OUT: > 100 µM (inactive)

IN: // same read-out, input: NC(CCCCCP(=O)(O)O)C(=O)O (configuration not stated)
OUT: > 100 µM (inactive)

IN: Let us now turn to CCCCCCCCCCCCCP(=O)(NCC(N)=O)OCC (configuration not stated)
OUT: 22.6 µM (inactive)

IN: Please give the result for `COC(=O)NC12CC3CC(CC(F)(C3)C1)C2` too.
OUT: > 100 µM (inactive)

IN: Would you kindly repeat that for `Cc1c(-c2ccccc2)[nH]c2cc(Cl)ccc2c1=O` ?
OUT: > 100 µM (inactive)

IN: Check `NC(=O)c1cn(Cc2ccccc2)c(=O)n1Cc1ccccc1` too.
OUT: > 100 µM (inactive)

IN: Can you check `N#CC1=C(N)N2C(=O)/C(=C/c3ccccc3O)N=C2S1` next?
OUT: 26.4 µM (inactive)

IN: Please do the same for C=C1CC(C)(COc2ccc3ccc(=O)oc3c2)OC1=O (configuration not stated) as well.
OUT: 0.402 µM (active)

IN: What do you have for `Nc1ccc(Nc2nc(F)nc(-c3c4ccccc4c4n3CCS4)n2)cc1` ?
OUT: 6.56 µM (inactive)

IN: Follow-up entry: `CCN(CC)CCNc1n[n+]([O-])c2ccccc2[n+]1[O-]`
OUT: 3.57 µM (inactive)

IN: // repeat for `C[C@@H]1C[C@H](O)[C@]2(O)O[C@@H]3C[C@@]4(C=O)[C@@H](CC[C@@H]5[C@@H]4CC[C@]4(C)[C@@H](C6=CC(=O)OC6)CC[C@]54O)C[C@H]3O[C@@H]2O1` and report
OUT: 0.0175 µM (active)

IN: Note, next up: CC(C)C(C/C=C1\CC(CO)(COC(=O)c2ccccc2)OC1=O)C(C)C (configuration not stated)
OUT: 12.1 µM (inactive)

IN: Also need `O=C(CC/C(CC(=O)c1ccc(Cl)cc1)=N\O)Nc1cccc(Cl)c1` , thanks.
OUT: > 100 µM (inactive)

IN: Now the molecule `CN1CCN(c2ccc3c(c2)NCC(=O)N3)CC1`
OUT: > 100 µM (inactive)
